subject of test: UniProt:P35462
Where a name gives a salt, the structure may show the parent alone.
Give measured pKi for each item. Keep answers brief.
Numbers only, as −log10 of the molar value.

Use these answered entries as a reference point.
Cc1nnc(SCCCN2CCN(c3cc(C4CCC4)nc(C(C)(C)C)n3)CC2)n1C.O=C(O)/C=C/C(=O)O [Example 43, fumarate] :: 8.82
Cl.Cn1cccc1-c1nnc(SCCCN2CCN(c3cc(C4CCC4)nc(C(C)(C)C)n3)CC2)n1C [Example 66, hydrochloride] :: 9.02
CC(C)(C)c1nc(C2CCC2)cc(N2CCN(CCCOc3ccnc(O)n3)CC2)n1 :: 8.92
Cn1c(OCCCN2CCN(c3cc(C4CCC4)nc(C(C)(C)C)n3)CC2)nnc1-c1ccccc1 :: 8.80
Cn1c(SCCCN2CCN(c3cc(C(C)(C)C)nc(C4CC4)n3)CC2)nnc1-c1cnccn1 [Example 57, hydrochloride] :: 8.26

// batch mode: one pKi value per listed entry
1. CC(C)(C)c1nc(C2CCC2)cc(N2CCN(CCCSc3nncs3)CC2)n1
2. Cl.Cn1nnnc1SCCCN1CCN(c2cc(C3CC3)nc(C(C)(C)C)n2)CC1 [Example 35, hydrochloride]

Solution:
1. 9.05
2. 8.42

###

subject of test: human dopamine D2L receptors (long isoform) (Homo sapiens, UniProt P14416)
Construct: expressed in transfected cells; host or cells: HEK-293
Sequence (P14416 whole entry, canonical isoform): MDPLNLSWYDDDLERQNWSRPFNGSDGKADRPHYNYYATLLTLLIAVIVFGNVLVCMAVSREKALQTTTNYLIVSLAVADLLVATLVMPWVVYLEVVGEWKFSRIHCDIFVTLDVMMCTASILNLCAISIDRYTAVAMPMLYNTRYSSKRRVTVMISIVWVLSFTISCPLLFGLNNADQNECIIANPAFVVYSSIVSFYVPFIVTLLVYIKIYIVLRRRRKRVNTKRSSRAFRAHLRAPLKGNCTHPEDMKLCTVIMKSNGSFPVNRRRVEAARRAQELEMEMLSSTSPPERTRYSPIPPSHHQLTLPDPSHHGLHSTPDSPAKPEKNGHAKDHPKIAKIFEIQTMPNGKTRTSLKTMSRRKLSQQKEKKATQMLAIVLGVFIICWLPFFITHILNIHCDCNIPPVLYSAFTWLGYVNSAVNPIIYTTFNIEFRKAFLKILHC
test details: Dopamine D2L receptor binding, [125I] iodospiperone displacement
value kind: Ki (nM)
Numbers only, in nM.

Problem: # query: Ki of entry CC(C)(C)c1nc(C2CCC2)cc(N2CCN(CCCSc3nncs3)CC2)n1
Solution: 49

###

subject of test: human dopamine D3 receptors (Homo sapiens, UniProt P35462)
Sequence (P35462 whole entry): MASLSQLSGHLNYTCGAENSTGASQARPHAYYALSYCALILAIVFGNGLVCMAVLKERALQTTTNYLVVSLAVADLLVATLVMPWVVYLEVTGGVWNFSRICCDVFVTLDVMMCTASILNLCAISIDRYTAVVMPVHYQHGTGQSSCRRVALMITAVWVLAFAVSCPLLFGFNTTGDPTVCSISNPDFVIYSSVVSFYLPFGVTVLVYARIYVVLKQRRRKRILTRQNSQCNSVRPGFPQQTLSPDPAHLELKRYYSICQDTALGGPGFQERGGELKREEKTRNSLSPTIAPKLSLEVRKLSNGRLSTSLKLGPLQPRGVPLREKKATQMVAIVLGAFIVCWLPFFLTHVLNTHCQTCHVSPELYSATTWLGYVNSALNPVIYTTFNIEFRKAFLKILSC
Give measured pKi for each item. Keep answers brief.
Answers are plain numbers, as −log10 of the molar value.

Use these answered entries as a reference point.
CC(C)(C)c1nc(C2CCC2)cc(N2CCN(CCCCNC(=O)c3ccncc3)CC2)n1.Cl [Example 11, hydrochloride] :: 9.05
Cc1nnc(SCCCN2CCN(c3cc(C4CC4)nc(C(C)(C)C)n3)CC2)n1C.Cl [Example 45, hydrochloride] :: 8.92
C[C@@H](COc1ncccn1)CN1CCN(c2cc(C3CCC3)nc(C(C)(C)C)n2)CC1.Cl [Example 28, hydrochloride] :: 8.42

// batch mode: one pKi value per listed entry
1. CC(C)(C)c1nc(C2CCC2)cc(N2CCN(CCCSc3ncccn3)CC2)n1.Cl [Example 4, hydrochloride]
2. Cl.Cn1c(SCCCN2CCN(c3cc(C4CC4)nc(C(C)(C)C)n3)CC2)nnc1C(F)(F)F [Example 47, hydrochloride]
3. Cc1nnc(SCCCN2CCN(c3cc(C4(C)CC4)nc(C(C)(C)C)n3)CC2)n1C [Example 54]

Solution:
1. 9.05
2. 8.72
3. 9.19

###

Give measured pKi for each item. Keep answers brief.
subject of test: human dopamine D2L receptors (long isoform) (Homo sapiens, UniProt P14416)
Construct: expressed in transfected cells; host or cells: HEK-293
test details: Dopamine D2L receptor binding, [125I] iodospiperone displacement
condition summary: membranes of HEK-293 cells, 0.01 nM [125I] iodospiperone, 25° C., 60 minutes; read-out: Ki(D2)
Give bare numbers, as −log10 of the molar value.

Use these answered entries as a reference point.
C[C@@H](COc1nccc(O)n1)CN1CCN(c2cc(C3CCC3)nc(C(C)(C)C)n2)CC1 [Example 52] :: 6.03
Cc1nnc(SCCCN2CCN(c3cc(C4(C)CC4)nc(C(C)(C)C)n3)CC2)n1C [Example 54] :: 7.10
Cn1cnnc1SCCCN1CCN(c2cc(C3CCC3)nc(C(C)(C)C)n2)CC1 [Example 41] :: 6.39
Cl.Cn1c(SCCCN2CCN(c3cc(C4CC4)nc(C(C)(C)C)n3)CC2)nnc1C(F)(F)F [Example 47, hydrochloride] :: 6.32

// batch mode: one pKi value per listed entry
1. CC(C)(C)c1nc(C2CCC2)cc(N2CCN(CCCCNC(=O)c3ccncc3)CC2)n1.Cl [Example 11, hydrochloride]
2. CC(C)(C)c1nc(C2CCC2)cc(N2CCN(CCCCc3nccc(O)n3)CC2)n1 [Example 34]
3. Cl.Cn1nnnc1SCCCN1CCN(c2cc(C3CC3)nc(C(C)(C)C)n2)CC1 [Example 35, hydrochloride]
4. Cc1nnc(SCCCN2CCN(c3cc(C4CCC4)nc(C(C)(C)C)n3)CC2)s1.Cl [Example 2, hydrochloride]

Solution:
1. 6.86
2. 7.11
3. 6.23
4. 6.87

// batch mode: one pKi value per listed entry
1. C[C@@H](COc1ccnc(O)n1)CN1CCN(c2cc(C3CCC3)nc(C(C)(C)C)n2)CC1 [Example 31]
2. CC(C)(C)c1nc(C2CC2)cc(N2CCN(CCCOc3nccc(O)n3)CC2)n1 [Example 37]
3. Cc1nnc(SCCCN2CCN(c3cc(C4CC4)nc(C(C)(C)C)n3)CC2)n1C.Cl [Example 45, hydrochloride]
4. Cn1c(OCCCN2CCN(c3cc(C4CCC4)nc(C(C)(C)C)n3)CC2)nnc1-c1ccccc1 [Example 64]
5. Cn1cnnc1SCCCN1CCN(c2cc(C3(C)CC3)nc(C(C)(C)C)n2)CC1 [Example 53]
6. Cn1c(SCCCN2CCN(c3cc(C4CCC4)nc(C(C)(C)C)n3)CC2)nnc1C1CC1.O=C(O)/C=C/C(=O)O [Example 44, fumarate]
7. Cc1nnc(SCCCN2CCN(c3cc(C4CCC4)nc(C(C)(C)C)n3)CC2)n1C.O=C(O)/C=C/C(=O)O [Example 43, fumarate]

Solution:
1. 6.84
2. 6.44
3. 6.57
4. 6.83
5. 7.24
6. 6.85
7. 6.52
